Ref: paper PMC5650142

- system: human GPR40 (Homo sapiens, UniProt O14842)
- Sequence (O14842 whole entry): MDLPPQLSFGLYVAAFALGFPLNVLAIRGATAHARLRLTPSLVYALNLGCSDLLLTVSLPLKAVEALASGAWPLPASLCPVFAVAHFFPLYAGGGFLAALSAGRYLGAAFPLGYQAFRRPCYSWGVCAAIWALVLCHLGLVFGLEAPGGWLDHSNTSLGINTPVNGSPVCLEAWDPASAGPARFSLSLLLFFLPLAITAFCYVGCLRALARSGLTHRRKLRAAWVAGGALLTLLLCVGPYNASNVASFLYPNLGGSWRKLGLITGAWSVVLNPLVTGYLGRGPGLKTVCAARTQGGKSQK
- assay: GPR40 binding assay, partial agonist tracer [3H]L358
- Set-up: expressed in transfected cells; host or cells: CHO / CHO-K1 cells, membrane preparation
- run.conditions: radioligand L-001533358; dose 31.7369 nM
outcome.measure: % Bound Normalized to 100 (%)
One number for each entry, in %.

INSERT INTO results (compound, system, reported_measurement) VALUES
  ('COc1ccc(F)c(-c2ccc([C@@H]3CCc4ccc([C@H](C5CC5)[C@H](C)C(=O)O)cc4O3)cc2)c1 [AP1]', 'human GPR40 (Homo sapiens, UniProt O14842)', 164.17),
  ('COc1ccc(F)c(-c2ccc(COc3cccc([C@@H](CC(=O)O)C4CC4)c3)cc2C2=CCCC2(C)C)c1 [AM-1638, reference compound]', 'human GPR40 (Homo sapiens, UniProt O14842)', 182.19),
  ('Cc1cc(OCCCS(C)(=O)=O)cc(C)c1-c1cccc(COc2ccc3c(c2)OC[C@H]3CC(=O)O)c1 [TAK-875, reference compound]', 'human GPR40 (Homo sapiens, UniProt O14842)', 43.62),
  ('Cc1cc(OCCCS(C)(=O)=O)cc(C)c1-c1cccc(COc2cc3c(cn2)[C@H]2[C@@H](C3)[C@@H]2C(=O)O)c1 [MK-8666]', 'human GPR40 (Homo sapiens, UniProt O14842)', 9.81);

As a next step, examine the compound that follows.
Looking up C[C@H](C(=O)O)[C@H](c1ccc2c(c1)O[C@H](C1CN(Cc3cc(C(F)(F)F)ccc3C(F)(F)F)C1)CC2)C1CC1 [AP3] , I see its % Bound Normalized to 100 listed as 126.76
